Molecular target: human IL5 (human, UniProt P05113 20-134, biotinylated (IL5-biotin) in Examples 2, 5, 6, 9 and 11; site not stated)
Experiment: flow cytometry blocking IL5/IL5R
Readout: IC50 (mg/L)

# Binder, Endpoint unit, Quantitative readout
measured = [
    ("Nb21 (VHH) VHH: QVQLQESGGGSAQAGGSLKLSCVVSGYPYSGDYCMGWFRQAPGKEREGVAAFYTGGGSTYYADSVKGRFTTSQDNATSTFHLQMNSLKPEDTATYYCAADPWSVYGGSCGVKDPNPKAFNYWGQGTQVTVSS", "mg/L", 1.57),
    ("Nb25 (VHH) VHH: QVQLQESGGGSVQAGGSLRLSCAASEYTYSRYCMGWFRQVPGKEREGVATIDSDGSTSYADSVKGRFTISKDNAKNTLYLQMNSLKPEDTAMYYCAARYFYIATTGLRPCGEYEYNYWGQGTQVTVSS", "mg/L", 2.62),
    ("Nb66 (VHH) VHH: QVQLQESGGGSVQAGGSLRLSCAASGYTVSSNMGWFRQAPGKEREGVAAIYPDGATYYADSVKGRFTISQDNAENTVYLQMNSLKPEDTAMYYCAADLAFNGLGTLALHGYWGQGTQVTVSS", "mg/L", 1.17),
    ("Nb92 (VHH) VHH: QVQLQESGGGLVQPGGSLRLSCAASGFTFSNYYMSWVRQAPGKGLEWVSSISSDGSNTYYEDSVKGRFTISRDNANNTLYLQMNSLKSEDTALYHCATDLYDDSWYDHWGQGTQVTVSS", "mg/L", 2.29),
]

Ref: patent US20230399395A1
